- system-under-test: Interstitial collagenase (Homo sapiens)
- Sequence (P03956 whole entry): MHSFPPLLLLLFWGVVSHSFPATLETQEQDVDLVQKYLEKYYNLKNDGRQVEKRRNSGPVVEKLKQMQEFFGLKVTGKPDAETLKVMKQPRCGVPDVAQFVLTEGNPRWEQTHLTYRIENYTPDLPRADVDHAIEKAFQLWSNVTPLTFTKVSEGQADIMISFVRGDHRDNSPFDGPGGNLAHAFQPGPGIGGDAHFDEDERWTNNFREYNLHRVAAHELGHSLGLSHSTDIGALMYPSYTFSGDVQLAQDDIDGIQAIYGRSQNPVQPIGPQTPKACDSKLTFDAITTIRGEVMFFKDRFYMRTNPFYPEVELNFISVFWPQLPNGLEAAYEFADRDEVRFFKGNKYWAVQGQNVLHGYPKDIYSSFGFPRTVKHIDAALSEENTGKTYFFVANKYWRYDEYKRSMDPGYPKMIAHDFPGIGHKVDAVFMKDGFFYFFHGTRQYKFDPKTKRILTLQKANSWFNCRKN
- assay-info: Inhibition of human recombinant MMP1 after 60 mins by fluorescence plate reader
pIC50: −log10 of the molar value.
Exercise: state measured pIC50 for each of the compounds provided.

q: Provide one value: measured pIC50 of C[C@@H]1[C@](C)(c2ccccc2)[C@]1(NS(=O)(=O)N1CCn2c(nc3cc(F)ccc32)C1)C(=O)O
a: < 5.00

q: Provide one value: measured pIC50 of C[C@@H]1[C@H](c2ccccc2)[C@]1(NS(=O)(=O)N1CCc2c(nn3cc(F)ccc23)C1)C(=O)O
a: 5.38

q: Provide one value: measured pIC50 of C[C@@H]1[C@H](c2ccccc2)[C@]1(NS(=O)(=O)N1CC=C(c2ccc(Cl)cc2)CC1)C(=O)O
a: < 5.00

q: Provide one value: measured pIC50 of C[C@@H]1[C@H](c2ccccc2)[C@]1(NS(=O)(=O)N1CCn2c(nc3cc(F)ccc32)C1)C(=O)O
a: < 5.00

q: Provide one value: measured pIC50 of COc1ccc2c(c1)nc1n2CCN(S(=O)(=O)N[C@@]2(C(=O)O)[C@H](C)[C@@H]2c2ccccc2)C1
a: < 5.00

q: Provide one value: measured pIC50 of C[C@@H]1[C@H](c2ccccc2)[C@]1(NS(=O)(=O)N1CCn2c(cc3cc(Cl)ccc32)C1)C(=O)O
a: < 5.00

q: Provide one value: measured pIC50 of C[C@@H]1[C@H](c2ccccc2)[C@]1(NS(=O)(=O)N1CCc2c([nH]c3cc(F)ccc23)C1)C(=O)O
a: 5.64

q: Provide one value: measured pIC50 of C[C@@H]1CN(S(=O)(=O)N[C@@]2(C(=O)O)[C@H](C)[C@@H]2c2ccccc2)CCN1c1ccc(F)cc1
a: < 5.00

q: Provide one value: measured pIC50 of C[C@@H]1[C@H](c2ccccc2)[C@]1(NS(=O)(=O)c1ccc(-c2ccc(Cl)cc2)s1)C(=O)O
a: 5.40

q: Provide one value: measured pIC50 of C[C@@H]1CN(S(=O)(=O)N[C@@]2(C(=O)O)[C@H](C)[C@@H]2c2ccccc2)CCN1c1cc(C(C)(F)F)on1
a: 5.59

q: Provide one value: measured pIC50 of C[C@@H]1[C@H](c2ccccc2)[C@]1(NS(=O)(=O)N1CCn2c(nc3cc(Cl)ccc32)C1)C(=O)O
a: < 5.00

q: Provide one value: measured pIC50 of Cc1ccc2c(c1)nc1n2CCN(S(=O)(=O)N[C@@]2(C(=O)O)[C@H](C)[C@@H]2c2ccccc2)C1
a: < 5.00

q: Provide one value: measured pIC50 of C[C@@H]1[C@H](c2ccccc2)[C@]1(NS(=O)(=O)N1CCn2c(nc3cc(C#N)ccc32)C1)C(=O)O
a: < 5.00

q: Provide one value: measured pIC50 of C[C@@H]1[C@H](c2ccccc2)[C@]1(NS(=O)(=O)c1cc2nn3cc(Cl)ccc3c2s1)C(=O)O
a: 5.89

q: Provide one value: measured pIC50 of C[C@@H]1[C@H](c2ccccc2)[C@]1(NS(=O)(=O)c1cc2[nH]c3cc(F)ccc3c2s1)C(=O)O
a: 6.64

q: Provide one value: measured pIC50 of C[C@@H]1[C@H](c2ccccc2)[C@]1(NS(=O)(=O)N1CCN(c2ccc(Cl)cc2)[C@@H](C)C1)C(=O)O
a: < 5.00
